- study_system: heart form of human NBC1 (Homo sapiens, UniProt Q9Y6R1)
- Construct: expressed in transfected cells
- Sequence (Q9Y6R1 whole entry): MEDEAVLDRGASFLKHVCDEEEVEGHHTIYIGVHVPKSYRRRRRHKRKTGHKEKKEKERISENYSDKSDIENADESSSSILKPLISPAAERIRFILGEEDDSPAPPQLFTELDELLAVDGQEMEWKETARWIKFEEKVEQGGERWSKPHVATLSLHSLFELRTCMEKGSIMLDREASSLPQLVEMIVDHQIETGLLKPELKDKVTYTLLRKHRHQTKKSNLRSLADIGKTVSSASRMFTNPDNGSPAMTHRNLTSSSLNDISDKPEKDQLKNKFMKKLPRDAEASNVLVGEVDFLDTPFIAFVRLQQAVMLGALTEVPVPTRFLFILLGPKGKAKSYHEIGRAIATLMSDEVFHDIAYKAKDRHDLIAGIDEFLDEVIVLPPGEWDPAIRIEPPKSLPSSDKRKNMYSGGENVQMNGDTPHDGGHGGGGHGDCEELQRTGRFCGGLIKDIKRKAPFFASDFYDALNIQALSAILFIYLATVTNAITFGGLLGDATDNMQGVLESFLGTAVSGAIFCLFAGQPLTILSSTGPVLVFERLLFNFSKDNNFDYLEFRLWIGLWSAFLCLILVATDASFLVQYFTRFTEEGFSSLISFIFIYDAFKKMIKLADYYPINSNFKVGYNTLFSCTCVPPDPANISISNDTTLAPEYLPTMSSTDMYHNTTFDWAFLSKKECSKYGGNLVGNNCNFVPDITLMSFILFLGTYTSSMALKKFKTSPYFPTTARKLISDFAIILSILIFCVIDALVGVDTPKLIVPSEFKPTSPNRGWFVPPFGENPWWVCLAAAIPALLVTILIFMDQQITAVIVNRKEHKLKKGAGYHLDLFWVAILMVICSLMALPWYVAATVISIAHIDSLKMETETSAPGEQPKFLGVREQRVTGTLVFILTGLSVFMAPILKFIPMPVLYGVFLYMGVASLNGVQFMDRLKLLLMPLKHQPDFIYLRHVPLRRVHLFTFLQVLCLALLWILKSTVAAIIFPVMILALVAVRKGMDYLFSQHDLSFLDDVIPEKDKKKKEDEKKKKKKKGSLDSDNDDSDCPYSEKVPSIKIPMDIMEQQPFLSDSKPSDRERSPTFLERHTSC
- test_protocol: NBC activity measurement (pHi recovery after acid load, BCECF, FLIPR)
- Assay type: cell-based
- setup_conditions: residual NBC activity at inhibitor concentration of 10 μM; CHO K1 cells transfected with heart form of human NBC1; NHE and NCBE blocked; duplicate determinations
readout_name: residual activity [%] at 10 μM (%)
Just the number please, in %, no unit attached.

So what's the measured residual activity [%] at 10 μM for this one? CC(C)CNS(=O)(=O)c1cc(C(=O)O)c(NCCCCc2ccccc2)cc1Cl [Example 21]
94

Recorded residual activity [%] at 10 μM for CCc1ccc(NS(=O)(=O)c2cc(C(=O)O)c(NCCCCc3ccccc3)cc2Cl)cc1 [Example 18] , please?
79

Could you share which residual activity [%] at 10 μM value was measured for O=C(O)c1cc(S(=O)(=O)NCCc2ccc(Cl)cc2)c(Cl)cc1NCCCCc1ccccc1 [Example 16] ?
91

Tell me the measured residual activity [%] at 10 μM of O=C(O)c1cc(S(=O)(=O)NCc2ccccn2)c(Cl)cc1NCCCCc1ccccc1 [Example 9] , please.
89

residual activity [%] at 10 μM for Cc1cc(NCCCCc2ccccc2)c(C(=O)O)cc1S(=O)(=O)NCc1ccc(F)c(Cl)c1 [Example 4] ?
54

###

- study_system: heart form of human NBC1 (Homo sapiens)
- Construct: expressed in transfected cells
- test_protocol: NBC activity measurement (pHi recovery after acid load, BCECF, FLIPR)
- Format: cell-based
- setup_conditions: residual NBC activity at inhibitor concentration of 10 μM; CHO K1 cells transfected with heart form of human NBC1; NHE and NCBE blocked; duplicate determinations
readout_name: residual activity [%] at 10 μM (%)
Report the value in % with no unit label.

As a guide, the following entries are already answered.
O=C(O)c1cc(S(=O)(=O)NCc2ccc(F)c(Cl)c2)c(Cl)cc1NCCCCc1ccccc1; 46
O=C(O)c1cc(S(=O)(=O)NCc2ccc(F)c(Cl)c2)c(Br)cc1NCCCCc1ccccc1; 56
O=C(O)c1cc(S(=O)(=O)NCCc2cccs2)c(Cl)cc1NCCCCc1ccccc1; 95
O=C(O)c1cc(S(=O)(=O)NCc2ccc(F)c(Cl)c2)ccc1NCCCCc1ccccc1; 88
CCCc1cc(NCCCCc2ccccc2)c(C(=O)O)cc1S(=O)(=O)NCc1ccc(F)c(Cl)c1; 69
O=C(O)c1cc(S(=O)(=O)NCc2cccc(Cl)c2)c(Cl)cc1NCCCCc1ccccc1; 75
O=C(O)c1cc(S(=O)(=O)NCc2cccc(Cl)c2Cl)c(Cl)cc1NCCCCc1ccccc1; 37
O=C(O)c1cc(S(=O)(=O)NCc2c(F)cccc2Cl)c(Cl)cc1NCCCCc1ccccc1; 87

# input for lookup
Which residual activity [%] at 10 μM value belongs to CC(C)c1cc(NCCCCc2ccccc2)c(C(=O)O)cc1S(=O)(=O)NCc1ccc(F)c(Cl)c1 ?
78

###

- study_system: heart form of human NBC1 (Homo sapiens, UniProt Q9Y6R1)
- Construct: expressed in transfected cells
- test_protocol: NBC activity measurement (pHi recovery after acid load, BCECF, FLIPR)
- Assay type: cell-based
- setup_conditions: residual NBC activity at inhibitor concentration of 10 μM; CHO K1 cells transfected with heart form of human NBC1; NHE and NCBE blocked; duplicate determinations
readout_name: residual activity [%] at 10 μM (%)
Respond with the bare value in %.

Field: example entries. Status: answers known.
O=C(O)c1cc(S(=O)(=O)NCc2ccncc2)c(Cl)cc1NCCCCc1ccccc1; 89
NS(=O)(=O)c1ccc(CNS(=O)(=O)c2cc(C(=O)O)c(NCCCCc3ccccc3)cc2Cl)cc1; 81

Then this compound:
Reported residual activity [%] at 10 μM, compound O=C(O)c1cc(S(=O)(=O)NCc2ccc(Cl)cc2Cl)c(Cl)cc1NCCCCc1ccccc1 : ____
60

The reported numbers originate from patent US6593352B2.
